Experiment: Production of hydroxy-L-pipecolic acids by culture of recombinant E. coli expressing the hydroxylase (Example 5)
Format: cell-based, E. coli BL21 (DE3)
Conditions: after 120 hours, 20 mmol/L L-pipecolic acid in medium, 30° C.
quantityName: Accumulation amount of (5S)-Hydroxy-L-pipecolic acid
In your response, put the unit directly after the numeric value.

Need Accumulation amount of (5S)-Hydroxy-L-pipecolic acid of McPH: amino acid hydroxylase from Micromonospora chokoriensis, GenBank WP_030487089, SEQ ID NO: 2 (protein, listed as Micromonospora chokoriensis) MRTHFVGEVALDLARLEADLATCRSLEWSEAYSDYVFGGSWKSCMLWAPGGDAGDGVVTDYAYDRSAGFTPHAERLPYLAELIRETADLDRLNFARLALVTNSVIIPHRDLLELSDLPDEARNEHRMHIPLATNDNCFFNEDNVVYRMRRGEVWFLDASRIHSVAVLTAQPRIHLMLDFVDTPGAGSFTRVAGGGVEAGIPVDRIVTRPPLGDDERADLFGVAPLLSMDTFDEVFSIVIKKHFRRDGGSDFVWDTMLELAAKSPDPAVLPHTEELRKHYTLDRSA , thanks.
23.5 mmol/L
